- ASSAY_TEXT: Stability in human plasma at 37 °C
- Assay type: in vitro ADME
- PROTOCOL_CONDITIONS: t1/2 (min) of benzyl amide and ester analogues in human plasma, footnote a: hydrolysis occurred only at the acetyl promoiety
This section presents compounds with their documented half-life at 4 mM values.

>  <COMPOUND>
CC(=O)OCCC(C)(O)CC(=O)NCc1c(F)c(F)c(F)c(F)c1F (centres unmarked) [compound 35]

>  <half-life at 4 mM>
20 to 30 min

$$$$

Would you kindly look at the next entry?
q: # get_value(readout='half-life at 4 mM', item= CC(=O)OCCC(O)(CF)CC(=O)NCc1ccccc1 (centres unmarked) [38a] )
a: 20 to 30 min

====

Items are presented alongside their recorded MIC.
- Test system: Streptococcus pyogenes (GAS 5448)
- ASSAY_TEXT: MIC against additional organisms
- Type: cell-based
- PROTOCOL_CONDITIONS: Streptococcus pyogenes

// solved cases for MIC follow
>  <MOLECULE>
CN[C@H](CC(C)C)C(=O)N[C@H]1C(=O)N[C@@H](CC(N)=O)C(=O)N[C@H]2C(=O)N[C@H]3C(=O)N[C@H](C(=O)N[C@H](C(=O)O)c4cc(O)cc(O)c4-c4cc3ccc4O)[C@H](O)c3ccc(c(Cl)c3)Oc3cc2cc(c3O[C@@H]2O[C@H](CO)[C@@H](O)[C@H](O)[C@H]2O[C@H]2C[C@](C)(N)[C@H](O)[C@H](C)O2)Oc2ccc(cc2Cl)[C@H]1O [vancomycin, reference compound]

>  <MIC>
< 12.5 µM

$$$$
>  <MOLECULE>
O=C(CC1(C(F)(F)F)CCOC(=O)O1)OCc1ccc(F)cc1 (stereo not shown) [25a]

>  <MIC>
> 1600 µM

$$$$
>  <MOLECULE>
CC1(C)S[C@@H]2[C@H](NC(=O)Cc3ccccc3)C(=O)N2[C@H]1C(=O)O [penicillin G, reference compound]

>  <MIC>
< 12.5 µM

$$$$

Moving on to the next molecule.
q: Report MIC for O=C1CC(O)(C(F)(F)F)CCO1 (stereo not shown) [compound 26] please.
a: 200 µM

====

- ASSAY_TEXT: Stability in human plasma at 37 °C
- Type: in vitro ADME
- PROTOCOL_CONDITIONS: t1/2 (min) of carbonate analogues in human plasma, footnote a: hydrolysis occurred only at carbonate promoieties
ASSAY_ENDPOINT: half-life at 4 mM (min)
Give a bare numeral; the unit min is implied.

q: Bench note: what half-life at 4 mM did CC1(CC(=O)NCc2ccccc2)CCOC(=O)O1 (stereo not drawn) [10b] show?
a: 8

q: Requested read-out: half-life at 4 mM. Entry: CC1(CC(=O)NCc2ccc(F)cc2)CCOC(=O)O1 (stereo not drawn) [10c]
a: 8

q: Value lookup for half-life at 4 mM; key = CC1(CC(=O)OCc2ccccc2)CCOC(=O)O1 (stereo not drawn)
a: 4

====

The entries below are paired with their reported half-life.
- ASSAY_TEXT: Stability in PBS buffer
- Assay type: physicochemical
- PROTOCOL_CONDITIONS: pH 7.4
Quick note: give the figure in h, leave out the unit.

Worked examples follow.
>  <COMPOUND>
O=C(CC1(C(F)(F)F)CCOC(=O)O1)OCc1ccc(F)cc1 (stereo not shown) [25a]

>  <ASSAY_ENDPOINT>
half-life

>  <ASSAY_RESULT>
6

$$$$
>  <COMPOUND>
O=C(CC1(CF)CCOC(=O)O1)OCc1ccccc1 (stereo not shown) [compound 16]

>  <ASSAY_ENDPOINT>
half-life

>  <ASSAY_RESULT>
25

$$$$
>  <COMPOUND>
O=C(CC1(C(F)(F)F)CCOC(=O)O1)OCc1ccc(F)cc1F (stereo not shown) [25b]

>  <ASSAY_ENDPOINT>
half-life

>  <ASSAY_RESULT>
5

$$$$
>  <COMPOUND>
O=C(CC1(CF)CCOC(=O)O1)OCc1ccc(F)cc1 (stereo not shown) [18a]

>  <ASSAY_ENDPOINT>
half-life

>  <ASSAY_RESULT>
26

$$$$

q: // lookup half-life for O=C(CC1(CF)CCOC(=O)O1)OCc1ccc(F)cc1F (stereo not shown) [18b]
a: 22

q: Using the record for O=C(CC1(C(F)(F)F)CCOC(=O)O1)OCc1ccccc1 (stereo not shown) [compound 23] , report its half-life.
a: 5

====

- Tested on: E. coli K12
- ASSAY_TEXT: MIC against additional organisms
- Type: cell-based
- PROTOCOL_CONDITIONS: Escherichia coli, K12
# Lookup of reported MIC keyed by entry

>  <COMPOUND>
O=C1CC(O)(C(F)(F)F)CCO1 (stereo not shown) [compound 26]

>  <MIC>
> 1600 µM

$$$$
>  <COMPOUND>
CC1(C)S[C@@H]2[C@H](NC(=O)Cc3ccccc3)C(=O)N2[C@H]1C(=O)O [penicillin G, reference compound]

>  <MIC>
< 12.5 µM

$$$$
>  <COMPOUND>
O=C(CC1(C(F)(F)F)CCOC(=O)O1)OCc1ccc(F)cc1 (stereo not shown) [25a]

>  <MIC>
> 1600 µM

$$$$

Consider the record given below.
q: Any idea what MIC came out for CN[C@H](CC(C)C)C(=O)N[C@H]1C(=O)N[C@@H](CC(N)=O)C(=O)N[C@H]2C(=O)N[C@H]3C(=O)N[C@H](C(=O)N[C@H](C(=O)O)c4cc(O)cc(O)c4-c4cc3ccc4O)[C@H](O)c3ccc(c(Cl)c3)Oc3cc2cc(c3O[C@@H]2O[C@H](CO)[C@@H](O)[C@H](O)[C@H]2O[C@H]2C[C@](C)(N)[C@H](O)[C@H](C)O2)Oc2ccc(cc2Cl)[C@H]1O [vancomycin, reference compound] on E. coli K12?
a: < 12.5 µM

====

- ASSAY_TEXT: Stability in human plasma at 37 °C
- Format: in vitro ADME
- PROTOCOL_CONDITIONS: t1/2 (min) of carbonate analogues in human plasma, footnote a: hydrolysis occurred only at carbonate promoieties
Items are presented alongside their recorded half-life at 4 mM.

Consider the worked cases shown below.
>  <COMPOUND>
CC1(CC(=O)Nc2ccccc2)CCOC(=O)O1 (stereo not drawn) [10a]

>  <half-life at 4 mM>
< 3 min

$$$$
>  <COMPOUND>
CC1(CC(=O)Oc2ccccc2)CCOC(=O)O1 (stereo not drawn) [9a]

>  <half-life at 4 mM>
< 3 min

$$$$

Pending compound:
q: Give its half-life at 4 mM value. Item: CC1(CC(=O)Oc2ccc(F)cc2)CCOC(=O)O1 (stereo not drawn) [9b]
a: < 3 min
